- study_target: α1βB glycine receptor (ZF-α1GlyR subunit) (Danio rerio, UniProt O93430+Q6DC22)
- Sequence (O93430 25-444): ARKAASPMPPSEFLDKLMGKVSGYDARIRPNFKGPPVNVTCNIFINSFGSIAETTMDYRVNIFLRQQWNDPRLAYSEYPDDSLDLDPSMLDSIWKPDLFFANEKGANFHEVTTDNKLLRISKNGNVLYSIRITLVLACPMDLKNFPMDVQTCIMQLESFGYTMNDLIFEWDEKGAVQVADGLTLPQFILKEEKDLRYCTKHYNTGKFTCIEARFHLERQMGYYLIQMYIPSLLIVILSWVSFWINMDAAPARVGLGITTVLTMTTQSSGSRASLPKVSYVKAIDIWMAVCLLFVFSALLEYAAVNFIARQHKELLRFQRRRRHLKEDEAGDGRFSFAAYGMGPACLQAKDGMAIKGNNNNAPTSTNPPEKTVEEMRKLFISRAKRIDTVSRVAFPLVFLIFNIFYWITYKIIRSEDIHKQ
- Sequence (Q6DC22 23-494): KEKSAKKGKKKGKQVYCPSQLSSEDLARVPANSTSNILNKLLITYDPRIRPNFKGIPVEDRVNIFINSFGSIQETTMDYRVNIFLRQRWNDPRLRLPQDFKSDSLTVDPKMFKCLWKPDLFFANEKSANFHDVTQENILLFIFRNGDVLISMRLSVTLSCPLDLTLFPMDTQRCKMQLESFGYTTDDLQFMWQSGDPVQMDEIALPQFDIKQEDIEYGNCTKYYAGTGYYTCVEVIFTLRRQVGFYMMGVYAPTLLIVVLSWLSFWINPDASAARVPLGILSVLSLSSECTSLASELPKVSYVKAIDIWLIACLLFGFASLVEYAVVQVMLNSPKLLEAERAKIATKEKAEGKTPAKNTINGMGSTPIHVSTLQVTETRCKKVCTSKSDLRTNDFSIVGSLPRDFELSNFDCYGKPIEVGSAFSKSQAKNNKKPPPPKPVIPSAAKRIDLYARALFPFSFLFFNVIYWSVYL
- assay_notes: cryo-EM structure, […] Å ([…] glycine); EC50 from whole-cell currents in HEK […] T cells (homomeric α[…])
- Format: cell-based
- Parameters: gene glra1; full-length α1GlyR (NP_571477.1) with C-terminal thrombin site and 8xHis tag, 4α:1β heteropentamer; with βBGlyR (glrbb, NP_001003587.1); rat gephyrin E domain co-purified (not resolved)
endpoint_name: EC50 (µM)
Form entry: value (µM) — number only.

Task: Given the compound NCC(=O)O [glycine] , what is its reported EC50?
Result: 63

Value source: paper PMC10011588
